# Protocol notes: Half life at 812.5 mg/24 hrs regimen in vitro PK model
# Format: ADME
Measured metric: half-life (h)

| Mol | Measured number |
| --- | --- |
| C[C@H]1COc2c(N3CCN(C)CC3)c(F)cc3c(=O)c(C(=O)O)cn1c23.C[C@H]1COc2c(N3CCN(C)CC3)c(F)cc3c(=O)c(C(=O)O)cn1c23.O | 7.06 |

----------
# Protocol notes: Half life at 875 mg/24 hrs regimen in vitro PK model
# Assay type: ADME

| Mol | half-life |
| --- | --- |
| C[C@H]1COc2c(N3CCN(C)CC3)c(F)cc3c(=O)c(C(=O)O)cn1c23.C[C@H]1COc2c(N3CCN(C)CC3)c(F)cc3c(=O)c(C(=O)O)cn1c23.O | 8.02 h |

----------
# Protocol notes: Half life at 75 mg/24 hrs regimen in vitro PK model
# Assay type: ADME
Measured metric: half-life (h)

| Compound | Measured number |
| --- | --- |
| CO/N=C1\CN(c2nc3c(cc2F)c(=O)c(C(=O)O)cn3C2CC2)CC1CN (stereo unspecified) [GEMIFLOXACIN] | 7.19 |

----------
# Protocol notes: Half life at 843.5 mg/24 hrs regimen in vitro PK model
# Format: ADME

| Mol | half-life |
| --- | --- |
| C[C@H]1COc2c(N3CCN(C)CC3)c(F)cc3c(=O)c(C(=O)O)cn1c23.C[C@H]1COc2c(N3CCN(C)CC3)c(F)cc3c(=O)c(C(=O)O)cn1c23.O | 6.98 h |

----------
# Protocol notes: Half life at 500 mg/24 hrs regimen in vitro PK model
# Type: ADME

| Compound | half-life / h |
| --- | --- |
| C[C@H]1COc2c(N3CCN(C)CC3)c(F)cc3c(=O)c(C(=O)O)cn1c23.C[C@H]1COc2c(N3CCN(C)CC3)c(F)cc3c(=O)c(C(=O)O)cn1c23.O [LEVOFLOXACIN] | 8.01 |

----------
# Protocol notes: Half life at 50 mg/24 hrs regimen in vitro PK model
# Type: ADME

| Molecule | Uom | half-life |
| --- | --- | --- |
| CO/N=C1\CN(c2nc3c(cc2F)c(=O)c(C(=O)O)cn3C2CC2)CC1CN (stereo unspecified) [GEMIFLOXACIN] | h | 7.45 |

----------
# Protocol notes: Half life at 750 mg/24 hrs regimen in vitro PK model
# Assay type: ADME

| Mol | half-life (h) |
| --- | --- |
| C[C@H]1COc2c(N3CCN(C)CC3)c(F)cc3c(=O)c(C(=O)O)cn1c23.C[C@H]1COc2c(N3CCN(C)CC3)c(F)cc3c(=O)c(C(=O)O)cn1c23.O | 7.52 |

----------
# Protocol notes: Half life at 320 mg/24 hrs regimen in vitro PK model
# Format: ADME

| Molecule | half-life / min |
| --- | --- |
| CO/N=C1\CN(c2nc3c(cc2F)c(=O)c(C(=O)O)cn3C2CC2)CC1CN (stereo unspecified) [GEMIFLOXACIN] | 455 |

----------
# Protocol notes: Half life at 1000 mg/24 hrs regimen in vitro PK model
# Type: ADME
Measured metric: half-life (min)

| Compound | Measured number |
| --- | --- |
| C[C@H]1COc2c(N3CCN(C)CC3)c(F)cc3c(=O)c(C(=O)O)cn1c23.C[C@H]1COc2c(N3CCN(C)CC3)c(F)cc3c(=O)c(C(=O)O)cn1c23.O [LEVOFLOXACIN] | 471 |

----------
# Protocol notes: Half life at 200 mg/24 hrs regimen in vitro PK model
# Type: ADME
Measured metric: half-life (h)

| Molecule | Measured metric | Measured number |
| --- | --- | --- |
| COc1c(N2CCNC(C)C2)c(F)cc2c(=O)c(C(=O)O)cn(C3CC3)c12 (stereo unspecified) [GATIFLOXACIN] | half-life | 8.65 |

----------
# Protocol notes: Half life at 175 mg/24 hrs regimen in vitro PK model
# Assay type: ADME
Measured metric: half-life (h)

| Molecule | Measured number |
| --- | --- |
| COc1c(N2CCNC(C)C2)c(F)cc2c(=O)c(C(=O)O)cn(C3CC3)c12 (stereo unspecified) [GATIFLOXACIN] | 7.57 |
